targetSystem: UniProt:Q9Y2K2
Sequence (Q9Y2K2 whole entry): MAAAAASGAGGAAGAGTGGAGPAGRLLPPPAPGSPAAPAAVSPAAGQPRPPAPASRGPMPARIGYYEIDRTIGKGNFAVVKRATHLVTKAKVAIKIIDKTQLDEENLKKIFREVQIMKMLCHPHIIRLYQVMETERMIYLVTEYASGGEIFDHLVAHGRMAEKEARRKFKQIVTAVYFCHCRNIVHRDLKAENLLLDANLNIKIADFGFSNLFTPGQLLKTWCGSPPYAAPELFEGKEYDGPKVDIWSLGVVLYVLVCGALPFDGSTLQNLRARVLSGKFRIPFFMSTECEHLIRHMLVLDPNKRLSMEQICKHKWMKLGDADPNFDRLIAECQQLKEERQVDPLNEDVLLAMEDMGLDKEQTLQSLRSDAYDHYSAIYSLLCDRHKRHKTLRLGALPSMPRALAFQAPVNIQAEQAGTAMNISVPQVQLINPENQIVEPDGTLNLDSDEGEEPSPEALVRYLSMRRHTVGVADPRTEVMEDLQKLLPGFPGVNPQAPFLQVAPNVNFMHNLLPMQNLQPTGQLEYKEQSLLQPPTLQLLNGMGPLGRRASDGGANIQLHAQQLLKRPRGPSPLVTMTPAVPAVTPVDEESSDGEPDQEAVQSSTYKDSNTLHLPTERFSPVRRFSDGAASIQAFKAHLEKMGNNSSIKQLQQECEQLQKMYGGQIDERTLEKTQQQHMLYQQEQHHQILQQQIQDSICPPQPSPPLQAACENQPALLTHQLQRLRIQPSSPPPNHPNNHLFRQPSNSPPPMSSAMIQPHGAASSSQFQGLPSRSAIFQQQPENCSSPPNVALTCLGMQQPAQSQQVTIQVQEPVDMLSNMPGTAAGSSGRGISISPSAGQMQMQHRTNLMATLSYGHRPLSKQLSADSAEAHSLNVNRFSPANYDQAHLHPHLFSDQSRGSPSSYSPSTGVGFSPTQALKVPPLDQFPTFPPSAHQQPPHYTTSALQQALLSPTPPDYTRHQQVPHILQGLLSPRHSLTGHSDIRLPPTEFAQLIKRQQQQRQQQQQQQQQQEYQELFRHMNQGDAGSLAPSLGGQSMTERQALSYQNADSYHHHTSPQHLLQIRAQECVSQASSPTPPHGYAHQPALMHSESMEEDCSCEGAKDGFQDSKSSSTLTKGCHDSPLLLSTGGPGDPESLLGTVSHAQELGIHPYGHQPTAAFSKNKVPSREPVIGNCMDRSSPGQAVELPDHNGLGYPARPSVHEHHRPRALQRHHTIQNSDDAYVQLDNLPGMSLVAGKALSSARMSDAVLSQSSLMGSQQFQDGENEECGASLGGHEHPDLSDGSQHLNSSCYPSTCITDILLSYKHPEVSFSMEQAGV
pIC50: −log10 of the molar value.
assayMetric: pIC50

P. CC(=O)c1ccc(-n2cnc3cc(Nc4ccc(C)nn4)ncc32)nc1-n1nc(C#N)cc1C
Q. Cc1ccc(Nc2cc3ncn(-c4ccc(C(C)O)c(-c5cn(CC(F)(F)F)nc5C)n4)c3cn2)nn1 (centres unmarked)
Query :: Which of these two has the smaller recorded pIC50: P or Q ? The response must carry the label of the picked entry.
Result :: P

* * *

targetSystem: SIK2 (Homo sapiens (Human), UniProt Q9H0K1)
Sequence (Q9H0K1 whole entry): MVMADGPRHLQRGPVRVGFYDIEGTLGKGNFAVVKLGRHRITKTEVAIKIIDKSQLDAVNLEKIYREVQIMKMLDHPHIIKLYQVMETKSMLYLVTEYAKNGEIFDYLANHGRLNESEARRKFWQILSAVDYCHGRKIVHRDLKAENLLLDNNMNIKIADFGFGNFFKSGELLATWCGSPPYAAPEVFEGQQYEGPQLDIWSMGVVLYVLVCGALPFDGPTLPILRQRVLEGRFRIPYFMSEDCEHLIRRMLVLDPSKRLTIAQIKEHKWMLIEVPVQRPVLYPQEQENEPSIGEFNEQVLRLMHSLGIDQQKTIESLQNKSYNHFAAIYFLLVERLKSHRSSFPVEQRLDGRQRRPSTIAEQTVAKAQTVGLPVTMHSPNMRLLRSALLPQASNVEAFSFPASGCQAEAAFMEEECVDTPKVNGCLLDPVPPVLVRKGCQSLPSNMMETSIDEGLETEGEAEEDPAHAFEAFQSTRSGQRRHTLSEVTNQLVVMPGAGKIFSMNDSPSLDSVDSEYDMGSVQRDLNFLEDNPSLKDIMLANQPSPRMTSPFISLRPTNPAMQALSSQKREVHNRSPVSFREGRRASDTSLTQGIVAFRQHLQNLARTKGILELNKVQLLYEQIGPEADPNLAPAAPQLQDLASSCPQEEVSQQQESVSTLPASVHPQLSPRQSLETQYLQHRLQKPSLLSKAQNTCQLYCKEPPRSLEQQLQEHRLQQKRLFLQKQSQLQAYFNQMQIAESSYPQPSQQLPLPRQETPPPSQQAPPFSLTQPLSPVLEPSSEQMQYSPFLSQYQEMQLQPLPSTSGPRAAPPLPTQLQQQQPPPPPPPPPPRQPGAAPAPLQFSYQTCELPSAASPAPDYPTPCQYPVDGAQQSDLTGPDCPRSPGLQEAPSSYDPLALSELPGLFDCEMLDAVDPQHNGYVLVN
assayMetric: IC50 (nM)

For orientation, consider the following solved cases.
>  <compound>
Cc1ccc(Nc2cc3ncn(-c4ccc(C(C)O)c(-n5nc(C(F)F)cc5C)n4)c3cn2)nn1 (stereo not shown)

>  <unitAbbreviation>
nM

>  <IC50>
16

$$$$
>  <compound>
CC(=O)c1ccc(-n2cnc3cc(N4CCOc5cc(C)nnc54)ncc32)nc1-n1nc(C#N)cc1C

>  <unitAbbreviation>
nM

>  <IC50>
2540

$$$$

a. Cc1ccc(Nc2cc3ncn(-c4ccc(C(C)O)c(-c5cn(CC(F)(F)F)nc5C)n4)c3cn2)nn1 (stereo not shown)
b. CC(=O)c1ccc(-n2cnc3cc(Nc4ccc(C)nn4)ncc32)nc1-n1nc(C#N)cc1C
Query :: Problem: Given the entries a and b , determine which has the lower reported IC50. Choose, then provide that item's label.
Result :: a
(a: 3 nM, b: 42 nM)
